The measurements presented in this section are drawn from PubChem BioAssay AID1159580.

// reported normalized growth per item
# Test Name: chemical genetic growth profiling, strain panel (AID 1159580);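 further: tested at 20 µM; growth read once vehicle control cultures reached saturation at 30 °C; 1 = growth at the plate median or of vehicle wells; lower values mean less growth of the strain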
# Cond: S. cerevisiae deletion strains, growth OD, locus YNL197C, strain WHI3, active compounds read low
About 2,000 (36%) of roughly 5,500 compounds were called active. About 18% were inconclusive and are not listed. The list shows a part of the results.
Keep the answer to the number alone.

The measured normalized growth associated with CC1=C(/C=C/C(C)=C/C=C/C(C)=C\C(=O)O)C(C)(C)CCC1 reads 1.03

Just so you know, measured normalized growth for COc1ccc(/C=C/C(=O)Nc2ccccc2C(=O)O)cc1OC came out at 0.964

* * *

# Test Name: chemical genetic growth profiling, strain panel (AID 1159580);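 further: tested at 20 µM; growth read once vehicle control cultures reached saturation at 30 °C; 1 = growth at the plate median or of vehicle wells; lower values mean less growth of the strain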
# Cond: S. cerevisiae deletion strains, growth OD, locus YNL197C, strain WHI3, active compounds read low
In all, about 5,500 compounds went through this assay and about 2,000 (36%) were called active. Not shown: some 18% with an inconclusive outcome. Some of the results follow.
Assay Readout: normalized growth
Could you keep your reply to the number by itself?

# compound CCC(C)N(C)C(=O)c1cc2ccccc2c(-c2ccccc2Cl)n1 (stereo unspecified) ; its normalized growth = 0.95

* * *

# Test Name: chemical genetic growth profiling, strain panel (AID 1159580);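 further: tested at 20 µM; growth read once vehicle control cultures reached saturation at 30 °C; 1 = growth at the plate median or of vehicle wells; lower values mean less growth of the strain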
# Cond: S. cerevisiae deletion strains, growth OD, locus YKR091W, strain srl3, active compounds read low
In all, about 5,500 compounds went through this assay and about 2,000 (36%) were called active. Not shown: some 18% with an inconclusive outcome. Some of the results follow.
Assay Readout: normalized growth
Answer as a number with no unit attached.

Known results for compounds:
c1cc2c(cc1[C@H]1OC[C@H]3[C@@H]1CO[C@H]3c1ccc3c(c1)OCO3)OCO2; 0.899
C[C@]12CCC3c4ccc(OS(=O)(=O)O)cc4CCC3C1CCC2=O (stereo partly specified); 0.991
CC12CCCC(O)(C1)C1CC(C)(C)C1CC2 (stereo unspecified); 0.991
CC1(C)CC2C1CCC1(C)OC1CCC2(C)O (stereo unspecified); 1.02
CCCN(CCC)CCc1cccc2c1CC(=O)N2; 0.983

# input for lookup
Record summary for O=C(O)c1ccc2c(c1)OCO2 : reported normalized growth = 1.01

* * *

# Test Name: chemical genetic growth profiling, strain panel (AID 1159580);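 further: tested at 20 µM; growth read once vehicle control cultures reached saturation at 30 °C; 1 = growth at the plate median or of vehicle wells; lower values mean less growth of the strain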
# Cond: S. cerevisiae deletion strains, growth OD, locus YLR357W, strain rsc2, active compounds read low
Among all 5,500 compounds or so, about 2,000 (36%) were called active. Not shown: some 18% with an inconclusive outcome. The list shows a part of the results.
Documented normalized growth across a set of compounds
Reply with just the number.

Worked set:
CC[C@@H]1[C@@H](O)N2C3C[C@H]1C1C(O)[C@]4(C[C@@H]12)c1ccccc1N(C)[C@@H]34 (stereo partly specified); 1.09
CCN(CC)CCOC(=O)C(Cc1cccc2ccccc12)CC1CCCO1 (stereo unspecified); 0.998
CCCNC(C)C(=O)Nc1ccccc1C (stereo unspecified); 0.981
CC(COc1ccccc1)N(CCCl)Cc1ccccc1 (stereo unspecified); 0.969
Nc1nc2ncc(CNc3ccc(C(=O)N[C@@H](CCC(=O)O)C(=O)O)cc3)nc2c(=O)[nH]1; 1.01

We next turn to a different compound, shown below.
Per the records, this compound ( Nc1nc(N)c2nc(CNc3ccc(C(=O)NC(CCC(=O)O)C(=O)O)cc3)cnc2n1 (stereo unspecified) ) has normalized growth equal to 0.963
